tested.target: Bombyx mori EcR (VP16 fusion, CVBE switch construct) (Bombyx mori)
Sequence (P49881 86-606): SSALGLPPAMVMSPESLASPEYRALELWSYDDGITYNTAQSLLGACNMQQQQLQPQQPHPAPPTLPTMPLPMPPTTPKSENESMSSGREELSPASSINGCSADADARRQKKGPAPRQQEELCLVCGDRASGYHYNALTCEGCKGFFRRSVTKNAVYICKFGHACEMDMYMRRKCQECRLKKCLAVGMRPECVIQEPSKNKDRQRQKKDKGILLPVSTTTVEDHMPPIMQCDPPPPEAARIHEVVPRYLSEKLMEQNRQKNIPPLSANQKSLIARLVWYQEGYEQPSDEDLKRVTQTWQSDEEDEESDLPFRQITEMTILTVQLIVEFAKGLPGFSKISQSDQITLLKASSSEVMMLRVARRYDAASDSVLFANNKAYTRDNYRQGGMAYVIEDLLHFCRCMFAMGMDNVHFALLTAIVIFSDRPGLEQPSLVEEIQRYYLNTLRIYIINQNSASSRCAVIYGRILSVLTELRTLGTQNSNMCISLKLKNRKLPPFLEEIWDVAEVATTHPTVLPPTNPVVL
Sequence (P19793 whole entry partner, the tested form may be a part): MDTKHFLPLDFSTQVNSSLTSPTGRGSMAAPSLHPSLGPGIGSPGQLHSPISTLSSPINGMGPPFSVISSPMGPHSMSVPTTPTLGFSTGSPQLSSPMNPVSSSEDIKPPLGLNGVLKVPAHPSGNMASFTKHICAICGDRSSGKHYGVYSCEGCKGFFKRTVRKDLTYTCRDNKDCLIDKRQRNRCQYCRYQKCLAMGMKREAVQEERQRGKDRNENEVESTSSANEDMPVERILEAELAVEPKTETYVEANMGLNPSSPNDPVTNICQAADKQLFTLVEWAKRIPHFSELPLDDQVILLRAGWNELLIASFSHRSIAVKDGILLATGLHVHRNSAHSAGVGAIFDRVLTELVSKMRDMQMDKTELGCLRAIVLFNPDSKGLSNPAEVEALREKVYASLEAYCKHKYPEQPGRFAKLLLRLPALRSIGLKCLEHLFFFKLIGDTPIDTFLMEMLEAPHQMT
assay: Z3 Assay (HEK-293 cells with CVBE and 6XEcRE LacZ, β-galactosidase reporter)
run.parameters: maximum fold induction at any concentration relative to that of GS-E ligand; HEK-293 Z3 cells
Each item that follows carries a reported Z3 assay Rel Max FI.
Lab note: jot the number down without any unit.

Recorded Z3 assay Rel Max FI, per entry:
| molecule | Z3 assay Rel Max FI |
| --- | --- |
| COc1cccc(C(=O)NN(C(=O)c2cccc(C)c2)C(C)(C)C)c1C [RG-100694] | 1.157 |
| Cc1c(C(=O)NN(C(=O)c2cc(F)cc(F)c2)C(C)(C)C)ccc2c1CCCO2 [RG-115207] | 0.923 |
| CCc1ccc(C(=O)NN(C(=O)c2cc(C)ccc2[N+](=O)[O-])C(C)(C)C)cc1 [RG-101398] | 0.712 |
| CCc1c(OC)cccc1C(=O)NN(C(=O)c1cc(C)cc(C)c1)C(C)(C)COC(C)=O [RG-115310] | 0.781 |
| Cc1cc(C)cc(C(=O)N(NC(=O)c2ccc3c(c2)OC(F)(F)O3)C(C)(C)C)c1 [RG-115256] | 0.527 |
| Cc1c(C(=O)NN(C(=O)c2cc(F)c(F)c(F)c2)C(C)(C)C)ccc2c1CCCO2 [RG-115575] | 0.886 |
| COc1cc(Cl)ccc1C(=O)N(NC(=O)c1cccc(OC)c1C)C(C)(C)C [RG-100848] | 0.996 |
| Cc1cc(C)cc(C(=O)N(NC(=O)c2cccc(OC(C)C)c2C)C(C)(C)C)c1 [RG-101670] | 0.853 |
| CCc1c(OC)cccc1C(=O)NN(C(=O)c1cc(C)cc(C=NNC(=O)C(N)=O)c1)C(C)(C)C [RG-115613] | 0.964 |
| COc1cc(C(=O)N(NC(=O)c2cccc(O)c2C)C(C)(C)C)cc(OC)c1C [RG-115220] | 0.591 |

Entry Cc1cc(C)cc(C(=O)N(NC(=O)c2ccc(CC#N)cc2)C(C)(C)C)c1 [RG-100875] ; Z3 assay Rel Max FI = 0.818

Entry Cc1cc(C)cc(C(=O)N(NC(=O)c2ccc3c(c2)OC(C)O3)C(C)(C)C)c1 (stereo not shown) [RG-101511] ; Z3 assay Rel Max FI = 1.122

Entry CCCC(N(NC(=O)c1cccc(OC)c1CC)C(=O)c1cc(C)cc(C)c1)C(C)(C)C (stereo not shown) [RG-115830] ; Z3 assay Rel Max FI = 1.020

Entry CCc1c(C(=O)NN(C(=O)c2cccc(OC)c2)C(C)(C)C)ccc2c1OCCO2 [RG-100691] ; Z3 assay Rel Max FI = 0.945

Entry CCc1c(OC)cccc1C(=O)NN(C(=O)c1cc(OC)c(C)c(OC)c1)C(C)(C)C#N [RG-115690] ; Z3 assay Rel Max FI = 0.998

Entry Cc1cc(C)cc(C(=O)N(NC(=O)c2ccc3cc[nH]c3c2)C(C)(C)C)c1 [RG-115689] ; Z3 assay Rel Max FI = 0.411

Entry CCc1c(OC)cccc1C(=O)NN(C(=O)c1cccc(Br)c1)C(C)(C)C#N [RG-115648] ; Z3 assay Rel Max FI = 0.182

Entry COc1cc(F)ccc1C(=O)N(NC(=O)c1cccc(OC)c1C)C(C)(C)C [RG-100524] ; Z3 assay Rel Max FI = 1.002
